Biological target: T1, human galanin receptor 3 (hGalR3) (human, UniProt O60755 1-368)
T1 sequence (looked up): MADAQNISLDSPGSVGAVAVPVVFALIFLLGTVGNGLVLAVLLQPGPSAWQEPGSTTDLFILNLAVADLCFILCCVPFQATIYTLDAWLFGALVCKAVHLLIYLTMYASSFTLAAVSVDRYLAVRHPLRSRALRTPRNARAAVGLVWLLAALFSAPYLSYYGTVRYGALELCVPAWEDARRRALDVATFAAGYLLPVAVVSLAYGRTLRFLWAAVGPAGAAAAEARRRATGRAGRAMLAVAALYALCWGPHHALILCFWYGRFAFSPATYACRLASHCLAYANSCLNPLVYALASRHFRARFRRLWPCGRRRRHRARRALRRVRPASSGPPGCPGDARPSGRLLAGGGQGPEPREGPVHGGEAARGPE
Test: cell-based or functional assay
Positions of bridges follow the written chain, without caps; N, C: chain ends. No end group written: not given here.
MEASURED ATTRIBUTE: EC50, receptor activation (SRE-Luc assay) (nM)

Example entries and their recorded answers appear below.
NWTPQAMLYLKGCQ-NH2 [hSPX (C13)]
630
Ac-CWTPQAMLYLKGCQ-NH2 (disulfide 1-13; SMILES CSCC[C@@H]1NC(=O)[C@H](C)NC(=O)[C@H](CCC(N)=O)NC(=O)[C@@H]2CCCN2C(=O)[C@H]([C@@H](C)O)NC(=O)[C@H](Cc2c[nH]c3ccccc23)NC(=O)[C@@H](NC(C)=O)CSSC[C@@H](C(=O)N[C@@H](CCC(N)=O)C(N)=O)NC(=O)CNC(=O)[C@H](CCCCN)NC(=O)[C@H](CC(C)C)NC(=O)[C@H](Cc2ccc(O)cc2)NC(=O)[C@H](CC(C)C)NC1=O) [LH101 (Ac)]
390

P: NWTCQAMLYLKGAQ-NH2 [hSPX (C4)]
Q: CWTPQAMLYLKGAQ-NH2 [hSPX (C1)]
input: Short answer wanted: higher EC50, receptor activation (SRE-Luc assay), P or Q ? Selection: enter the item's label.
output: P
